All values here come from paper PMC10240976.

Entries and their measured other follow.
- system_tested: T1, mRFP-GABARAPL1 (UniProt Q9H0R8 1-117)
- T1 construct: also called membrane-anchored GABARAPL1
- assay_summary: recruitment of LIR-GFP or gProbe
- Design: unit not given here
- experimental_conditions: partners not purified
metric_name: other

{"columns": ["binder", "result_value"],
 "data": [
  ["KQLKRFSTEEFVLL (domain or fragment, source: HKO HeLa cells, transfected, in cells; not shown: GFP, C-terminal, kept) [LIR(ATG4C)-GFP]", 2.93],
  ["ERFFDSEDEDFEILSL (domain or fragment, also called ATG4B (4B); source: HKO HeLa cells, transfected, in cells; not shown: GFP, C-terminal, kept) [LIR(4B)-GFP]", 2.19],
  ["PEFNEKEDDEWILVDFIDTCTGFSA (domain or fragment, source: HKO HeLa cells, transfected, in cells; not shown: GFP, C-terminal, kept) [LIR(TP53INP1)-GFP]", 2.43],
  ["SKDSSCDTDDFVMVPAQFPGDLVAE (domain or fragment, source: HKO HeLa cells, transfected, in cells; not shown: GFP, C-terminal, kept) [LIR(ULK1)-GFP]", 1.58],
  ["DQLSLDEKDGFIFVNYSEGQTRAHL (domain or fragment, source: HKO HeLa cells, transfected, in cells; not shown: GFP, C-terminal, kept) [LIR(WDFY3/ALFY)-GFP]", 3.06],
  ["QLEEFDLEEDFEILSV (domain or fragment, source: HKO HeLa cells, transfected, in cells; not shown: GFP, C-terminal, kept) [LIR(ATG4A)-GFP]", 2.18],
  ["FVSEEDEVDGWLIIDLPDSYAAPPS (domain or fragment, also called TP53INP2 (TP); source: HKO HeLa cells, transfected, in cells; not shown: GFP, C-terminal, kept) [LIR(TP)-GFP]", 5]
]}
